These measurements were taken from patent US20080026996A1.

Molecular target: T1, human VPAC2 receptor (human, UniProt P41587 24-438)
T1 sequence (looked up): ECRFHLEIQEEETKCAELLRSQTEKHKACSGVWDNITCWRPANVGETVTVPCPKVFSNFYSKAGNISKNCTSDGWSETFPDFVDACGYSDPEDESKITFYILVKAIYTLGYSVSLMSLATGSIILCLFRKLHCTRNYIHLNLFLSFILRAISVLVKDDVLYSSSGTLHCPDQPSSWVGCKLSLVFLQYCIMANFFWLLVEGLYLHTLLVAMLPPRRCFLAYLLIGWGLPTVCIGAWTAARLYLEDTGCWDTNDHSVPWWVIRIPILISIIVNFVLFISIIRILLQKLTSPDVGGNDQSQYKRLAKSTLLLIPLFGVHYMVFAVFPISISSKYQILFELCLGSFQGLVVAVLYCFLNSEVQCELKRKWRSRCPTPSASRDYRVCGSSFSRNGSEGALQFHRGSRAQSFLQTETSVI
Assay: cell-based or functional assay
Where no end group is shown, it is not given here. The star is where a group is joined. Hexanoyl = CCCCCC(=O)*
recorded_metric: EC50 cAMP, Alpha Screen (nM)

> print(dat)
                                     binder          recorded.metric  experimental.value
1  Hexanoyl-HSDAVFTDNYTRLQKQVAAQKYLQSIKNKRYGGPSSGAPPPS [P252]  EC50 cAMP, Alpha Screen                0.26
2  Hexanoyl-HSDAVFTDNYTRLRKQVAAKKYLQVIKNKRYGGPSSGAPPPS [P116]  EC50 cAMP, Alpha Screen                0.12
3  Hexanoyl-HSDAVFTLNYTRLRKQVAAKKYLQSIKNKRYGGPSSGAPPPS [P161]  EC50 cAMP, Alpha Screen                   4
4  Hexanoyl-HSDAVFTDNYTRLRKQVAAKKYLQSFKNKRYGGPSSGAPPPS [P106]  EC50 cAMP, Alpha Screen                0.16
5  Hexanoyl-HSDAVFTDNYTRLRKQVAAKKYLQSIKNGGPSSGAPPPS [P154]  EC50 cAMP, Alpha Screen                0.18
6  Hexanoyl-HSDAVFTDNYTRLRKQVAAKKYLQSIKNGRPSSGAPPPS [P271]  EC50 cAMP, Alpha Screen                0.12
